Reference source for all entries: PubChem BioAssay (EPA / NIEHS)

Read-out: Thrombomodulin, THBD (gene 7056)
experimental-protocol: BSK_3C_Thrombomodulin: BioMAP Diversity Plus: 3C Assay for Thrombomodulin Biomarker Activity (AID 2283029)
condition-context: primary human endothelial cells (HUVEC); actives raise or lower the signal
Activity calls are given as the source filed them. The calls were made as follows: active = hit-call score of the fitted dose curve at least 0.9, where 1 is the maximum; inactive = score below 0.9.
Mark one answer only. Choices: 1 = active, 0 = inactive

Which outcome did this test record for the molecule `O=C1c2ccccc2C(=O)N1SC(Cl)(Cl)Cl` ?
0

* * *

experimental-protocol: ATG_DR4_LXR_CIS: Attagene CIS-FACTORIAL HepG2 Assay for human Liver X Receptor (LXR), DR4 submotif (AID 2282929)
condition-context: HepG2 Attagene DR4 cis-reporter, mRNA transcription; actives raise or lower the signal
Calls of active or inactive are those of the source. Rule for the calls: active = hit-call score of the fitted dose curve at least 0.9, where 1 is the maximum; inactive = score below 0.9.
Mark one answer only. Choices: yes (1) = active, no (0) = inactive

Before answering, review these 4 worked examples.
CCOCN(C(=O)CCl)c1c(C)cccc1CC = no (0)
CCOc1nc(NC)nc(NC(=O)NS(=O)(=O)c2ccccc2C(=O)OC)n1 = no (0)
CCc1ccc(C(=O)NN(C(=O)c2cc(C)cc(C)c2)C(C)(C)C)cc1 = yes (1)
[2H]C1([2H])[n+]2ccccc2-c2cccc[n+]2C1([2H])[2H] = yes (1)

Which outcome did this test record for the compound `O=C(O)CCCOc1ccc(Cl)cc1Cl` ?
no (0)

Which outcome did this test record for the compound `COc1cc(OC)nc(NC(=O)NS(=O)(=O)c2cc(NC=O)ccc2C(=O)N(C)C)n1` ?
no (0)

Which outcome did this test record for the compound `COC(=O)c1ccccc1CS(=O)(=O)NC(=O)Nc1nc(OC)cc(OC)n1` ?
no (0)

* * *

experimental-protocol: ATG_ISRE_CIS: Attagene CIS-FACTORIAL HepG2 Assay for human Interferon Regulatory Factor 1 (IRF1) binding to an Interferon-Stimulated Response Element (ISRE) (AID 2282948)
condition-context: HepG2 ISRE cis-reporter (Attagene), mRNA transcription readout; actives raise or lower the signal
The source made the active and inactive calls. How the source made its calls: active means hit-call score of the fitted dose curve at least 0.9, where 1 is the maximum; inactive means score below 0.9.
Mark one answer only. Choices: TRUE = active, FALSE = inactive

Before answering, review these 3 worked examples.
COP(=O)(OC)OC=C(Cl)Cl = TRUE
Oc1ccc(Cl)cc1Cc1ccccc1 = FALSE
O=C(O)COc1ccc(Cl)cc1Cl = FALSE

Switching to the query record.
Which outcome did this test record for the molecule `COC(=O)c1ccccc1S(=O)(=O)NC(=O)N(C)c1nc(C)nc(OC)n1` ?
FALSE

* * *

experimental-protocol: CCTE_Deisenroth_AIME_384WELL_CTox_Inactive: Cytotoxicity Assessment (CTOX) in CCTE's 384-well Estrogen Receptor Transactivation Assay without AIME metabolic competence (metabolism negative), Deisenroth Lab (AID 2284039);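 also: cell viability via live-cell protease substrate cleaved to fluorescent probe; cells exposed 24 h to medium preincubated 2 h with alginate-water beads without S9; loss of fluorescence signal means loss of viability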
Results filed as inconclusive are left out. Active and inactive are the calls of the source. The calls were made as follows: active = hit-call score of the fitted dose curve at least 0.9, where 1 is the maximum; inconclusive = response in the unintended direction; inactive = score below 0.9.
observation-type: AC50

O=C(O)C(F)(F)C(F)(F)C(F)(F)C(F)(F)C(F)(F)C(F)(F)C(F)(F)F = inactive
O=S(=O)(O)C(F)(F)C(F)(F)C(F)(F)C(F)(F)C(F)(F)C(F)(F)C(F)(F)C(F)(F)F = 100 µM (active)
O=C(O)COc1ccc(Cl)cc1Cl = inactive
CNC(=O)Oc1cccc(N=CN(C)C)c1 = inactive

* * *

experimental-protocol: Tanguay_ZF_120hpf_EYE_legacy: (Legacy) Oregon State University Tanguay Lab 120 Hour Post-fertilization zebrafish Assay for Eye Malformation (AID 2283636);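 also: binary presence or absence of eye malformation scored by brightfield in 120 hpf larvae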
Inconclusive results are not listed. Activity calls are given as the source filed them. Rule for the calls: active = hit-call score of the fitted dose curve at least 0.9, where 1 is the maximum; inconclusive = response in the unintended direction; inactive = score below 0.9.
observation-type: AC50

Solved cases (5 shown):
CC[C@H](C)[C@H]1O[C@]2(C=C[C@@H]1C)C[C@@H]1C[C@@H](C/C=C(\C)[C@@H](O[C@H]3C[C@H](OC)[C@@H](O[C@H]4C[C@H](OC)[C@@H](O)[C@H](C)O4)[C@H](C)O3)[C@@H](C)/C=C/C=C3\CO[C@@H]4[C@H](O)C(C)=C[C@@H](C(=O)O1)[C@]34O)O2 (tested in a mixture with another compound) = inactive
O=[N+]([O-])c1c(Cl)c(Cl)c(Cl)c(Cl)c1Cl = inactive
COc1nn(CSP(=S)(OC)OC)c(=O)s1 = inactive
C[C@H]1[C@H](c2ccc(Cl)cc2)SC(=O)N1C(=O)NC1CCCCC1 = inactive
CC(C)N(C(=O)COc1nnc(C(F)(F)F)s1)c1ccc(F)cc1 = inactive

Let us examine a further case.
Tell me AC50 reported for `CN1CSC(=S)N(C)C1`
34.9 µM (active)
